# experimental.details: yeast display, Sf9 membrane polyspecificity reagent, FACS + sequencing; frameworks hold sequencing errors
measured.property: polyreactivity (PSR sort gate)

>>> assay_value("QVQLVESGGGLVQAGGSLRLSCAASGSTFSTYVMGWYRQAPGKERELVATISYSSDSTYYADSVKVRFTISRDNAKNTVYLQMNSLKPEDSAVYYCNAARFTRRDYWGQGTQVTVSS")
"high polyreactivity"
>>> assay_value("QVQLVESGGGLVQAGGSLRLSCAASGFTFGYNAMGWYRQAPGKERELVAAISWSGGTYYADSVKGRFTISRDNAKNTVYLQMNSLKPEDTAVYYCAAVVVYWTSQIYYDGYYYWGQGTQVTVSS")
"high polyreactivity"
>>> assay_value("QVQLVESGGGLVQAGGILRLSCAATGSTFVNNVMGWYRQGPRKESDLFAAISRRATSTRYADSVKGRFTISRDHAKNTVYLQMNSLKPEDTEVYYCAATLYVGVTGYGYWGQGTQVTVSS")
"high polyreactivity"
>>> assay_value("QVQLVESGGGLVQAGGSLRLSGSASGRTFSQYVMRWYRQAPGQERELVAAISKRGGRTYYADSVQGRFTISRDNAKNTVYLQMNSLNPEDTAVYYCNDVYRYYPFDYWGQGTQVTVSS")
"high polyreactivity"
>>> assay_value("QVQLVESGGGLVQAGGSLRLSCAASGSIFAVYAMGWYRQAPGKERELVAVITRSGGSTYYADSVKGRFTISRDNAKNTVYLQMNSLKPEDTAVYYCAARRSYLLRYDYWGQGTQVTVSS")
"high polyreactivity"
>>> assay_value("QVQLVESGVGLVQAGGSLRLSCAPSGRTFFWYAMGWYRPAPGKERELVAAIRGAGRTNYADSVKGRFTISRDNAKYTVYLHMNSLKPEDTAVYYCAAQHYPWRRYDYWGLGTQVTVSS")
"high polyreactivity"
>>> assay_value("QVQLVESGGGLVQAGGSLRLSCAASGRILYRYAMGWYRQAPGKERELVAAITWRGGTTYYADSVKGRFTISRDNAKNTVYLQMISLKPEDTAVYYCNSDWWRTLESDYWGQGTQVTVSS")
"low polyreactivity"
>>> assay_value("QVQLQESGGGLVQAGGILRLSCAASGTISDRAGMGWYREAPAKNAIGATIDRGTNTNYADSVKGRFTISRDNAKNTVYLQMNSLKREDTAVYNCAADGRYYIYLDYWGQGTQVTVSS")
"low polyreactivity"
>>> assay_value("QVQLVETGGGLVQAGGSLRLICAASGSTFQYYAMGWSRQAPGKERELVAAITHSGTRTYYADSVKGRFTISRDNAKNTVYLQMYRLKPEDTSVYYCAALYTWYRYYRLDYWGQGTQVTVSS")
"high polyreactivity"
>>> assay_value("QVQLVESGGGLVQAGGSLRLSCAASGRTLFGNAMGWYRQAPAKERELVAAISRRGGSTSYADSVKGRFTISRDNAKNTVYLQMNSLKPEDTAVYYCASAQGKYTGTHYPYDYWGQGTQVTVSS")
"low polyreactivity"
>>> assay_value("QVQLVESGGGLVQAGGSLRLSCAASGSTFFRYAMGWYRQAPGKERELVAAISASGGRTYYADSVKGRFTISRDNAKNTVYLQMNSLKPEDTAVYYCNRQYGPYQYYYWGQGTQVTVSS")
"high polyreactivity"

The origin of these recorded values is the nanobody polyreactivity screen of Harvey et al. (2022).
